- System: A498 renal
- run-description: NCI-60 one-dose screen, 48 h (100 = growth as untreated, 0 = no growth, -100 = all killed)
- run-conditions: 10 µM unless noted
About 83,000 compounds went through this panel and 20% of them were active in at least one assay; those are over-represented in the sample as a whole.
measurement-label: growth (%)

| compound | assayed-system | measurement-label | unit-symbol | observed-measurement |
| --- | --- | --- | --- | --- |
| CC(C)c1ccc(C(=O)Nc2nc3ccc(O)cc3s2)cc1 | A498 renal | growth | % | 38 |
| c1cc2ccc1CNCCN1CCNCc3ccc(cc3)Oc3ccc(cc3)CNCCN(CCNCc3ccc(cc3)O2)CCNCc2ccc(cc2)Oc2ccc(cc2)CNCC1 | A498 renal | growth | % | 48 |
| O=C(N/N=C/c1ccc([N+](=O)[O-])cc1)c1ccc(Br)o1 | A498 renal | growth | % | 116 |
| Cc1ccc(NC(=S)/N=c2/n(-c3ccccc3)nc3n2CCN3C2=NCCN2)cc1 | A498 renal | growth | % | 81.2 |
| C#CC(OC(=O)N(C)C)(c1ccccc1)c1ccc(F)cc1 (stereo not given) | A498 renal | growth | % | 105 |
| CCCCN(CCCC)CC(O)c1ccc(OCc2ccccc2)c2ccccc12 (stereo not given) | A498 renal | growth | % | 97.2 |
| O=C(O)CC1CCCCC1c1ccccc1 (stereo not given) | A498 renal | growth | % | 122 |
| COc1ccc(C2=C(c3cn(C)c4ccccc34)C(=O)OC2)cc1OC | A498 renal | growth | % | -10.9 |
| COc1cc(-c2nc(SCCC(C)C)nc(Nc3ccc(S(N)(=O)=O)cc3)c2C#N)cc(OC)c1OC | A498 renal | growth | % | 43.5 |
| CCOC(=O)CC(c1ccccc1)C(C#N)c1ccccc1 (stereo not given) | A498 renal | growth | % | 91.3 |

###

- System: HCC-2998 colon
- run-description: NCI-60 one-dose screen, 48 h (100 = growth as untreated, 0 = no growth, -100 = all killed)
- run-conditions: 10 µM unless noted
The panel holds about 83,000 compounds, 20% with a hit somewhere; the sample as a whole holds those more often.
So basically: growth at 60% or higher? That is y. Lower than 60%? That is n.

| molecule | assayed-system | class-label |
| --- | --- | --- |
| CC1(C)CC(=O)c2c(ccc(C(=O)C[C@@H](N)CO)c2N)O1 | HCC-2998 colon | n |
| CCN(CC)CCCC(C)Nc1c2ccc(C)cc2nc2ccc(OC)cc12 (stereo not given) | HCC-2998 colon | n |
| Nc1cc(NN=C(c2ccc(O)cc2)c2ccc(O)cc2)c([N+](=O)[O-])cc1[N+](=O)[O-] | HCC-2998 colon | n |
| O=C(Nc1ccc(CN2CCOCC2)c(C(F)(F)F)c1)c1nc2ccc3[nH]ncc3c2c2c1CCCC2 | HCC-2998 colon | y |
| COc1ccc2nc3cc(Cl)ccc3c(Nc3ccc(O)cc3)c2c1 | HCC-2998 colon | y |

###

- Tested on: SW-620 colon
- run-description: NCI-60 one-dose screen, 48 h
- run-conditions: 10 µM unless noted
This is part of a sample that, as a whole, favours compounds with a hit. Of some 83,000 tested, about 20% had one in any assay. Active and inactive are the calls of the source. The calls were made as follows: active = growth percent below 10; inactive = the rest.
Classes used: active, inactive

| molecule | class-label |
| --- | --- |
| O=C(OCc1ccc2c(Cl)cc(Cl)c(O)c2n1)N1CCN(C(=O)c2cc3cc(F)ccc3[nH]2)CC1 | inactive |
| N=C(N)c1ccc(-c2ccc(-c3ccc(-c4cccs4)s3)s2)cc1F | inactive |
| CCn1cc(-c2[nH]c(=S)ncc2-c2ccc(Cl)cc2)c(-c2ccc(Br)cc2)n1 | inactive |
| O=c1[nH]cnc2c1ccn2C1OC(CO)C(O)C1O (stereo unspecified) | inactive |
| CCOC(=O)n1cc(C2=C(c3ccc(OC)c(OC)c3)COC2=O)c2ccccc21 | inactive |
| OC(c1ccc(Cl)cc1)(c1ccc(Cl)cc1)C(O)(c1ccc(Cl)cc1)c1ccc(Cl)cc1 | inactive |
| CCOC(=O)C(C(C)=O)c1nc2sc3cc(Cl)c(Cl)cc3n2c(=O)c1C#N (stereo unspecified) | inactive |
| Cc1ccc(-c2cc(-c3ccc(C)cc3)nc(NCCNc3ccnc4cc(Cl)ccc34)n2)cc1 | active |
| C[C@]12CCc3c(ccc4cc(O)ccc34)[C@@H]1CC[C@H]2O | inactive |
| C=CCCCCCCCCC(=O)OC(C)C | inactive |
| O=C(NCCO)c1cccnc1 | inactive |
| COc1cc2c(O)n(CCCN3CCOCC3)c3c4cnc5cccc(c(=O)c3c2cc1OC)c54 | inactive |
| COc1ccc(C(C(=O)O)c2ccc(OC)cc2)cc1 | inactive |
| C=C(C)[C@@H]1CC[C@]2(COCCCN)CC[C@]3(C)[C@H](CC[C@@H]4[C@@](C)(CCCNCCCN)[C@H](C(=C)C)CC[C@]43C)[C@@H]12 | active |
| CCCCCC1CCCCN1C(=O)OCCCC (stereo unspecified) | inactive |
| C#C[C@]1(O)CC[C@H]2[C@@H]3CC=C4c5nc(N)sc5CC[C@]4(C)[C@H]3CC[C@@]21C | inactive |
| Nc1cc(Cl)cc2cccnc12 | inactive |
| O=C1Nc2ccccc2/C1=C/C(=O)c1ccc(N2CCCC2)cc1 | active |
| CCN(CC)c1ccc2cc(C(Nc3ccc(Br)c(C(F)(F)F)c3)c3nnnn3C(C)(C)C)c(=O)oc2c1 (stereo unspecified) | inactive |
| COc1ncnc2c(-c3ccccc3)cn(COCc3ccccc3)c12 | inactive |
| Cc1cc(C)c(S(=O)(=O)/N=c2/n(-c3ccccc3)nc3n2CCN3C2=NCCN2)c(C)c1 | inactive |
